study-target: Mtb AccD6 (Mycobacterium tuberculosis, UniProt P9WQH5)
Sequence (P9WQH5 whole entry, looked up): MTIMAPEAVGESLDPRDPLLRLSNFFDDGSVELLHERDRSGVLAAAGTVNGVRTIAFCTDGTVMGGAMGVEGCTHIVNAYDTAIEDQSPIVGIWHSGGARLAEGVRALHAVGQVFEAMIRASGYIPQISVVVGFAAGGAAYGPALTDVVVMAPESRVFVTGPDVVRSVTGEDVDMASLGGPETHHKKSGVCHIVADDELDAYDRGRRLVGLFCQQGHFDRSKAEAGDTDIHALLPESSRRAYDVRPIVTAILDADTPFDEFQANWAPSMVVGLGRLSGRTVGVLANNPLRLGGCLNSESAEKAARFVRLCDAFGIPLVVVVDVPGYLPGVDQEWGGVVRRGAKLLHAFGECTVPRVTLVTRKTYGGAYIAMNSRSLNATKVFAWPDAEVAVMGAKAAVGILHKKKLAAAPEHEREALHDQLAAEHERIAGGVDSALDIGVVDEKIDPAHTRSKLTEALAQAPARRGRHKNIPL
experiment: biochemical
Assay type: biochemical
measurement-setup: 300 μM malonyl-CoA, inhibitor 10 μM to 2000 μM; read-out: IC50
property: pIC50
Answers are plain numbers, as −log10 of the molar value.

CC(C(=O)NC(CO)CO)c1ccc(Oc2nc3ccc(Cl)cc3s2)cc1 (centres unmarked) [NZ-371] ... 6.07
CC(C)NC(=O)COc1ccc(Oc2cnc3cc(Cl)ccc3n2)cc1 [NZ-307] ... 5.60
O=C(COc1ccc(Oc2cnc3cc(Cl)ccc3n2)cc1)NS(=O)(=O)c1ccccc1 [NZ-276] ... 5.14
O=C(COc1ccc(Oc2cnc3cc(Cl)ccc3n2)cc1)NO [NZ-286] ... 5.85

Now for a further compound.
Please give the measured pIC50 for this compound: CNC(=O)Cc1ccc(O)cc1Oc1nc2ccc(Cl)cc2s1 [NZ-390]
4.81

---

Give concentrations at which not toxic, human fibroblast cytotoxicity for every item shown.
Test system: human fibroblast

Sample answers from the record:
CC(C(=O)N1CCN(C)CC1)c1ccc(Oc2nc3ccc(Cl)cc3s2)cc1 (centres unmarked) ... 25 to 50 µM
CON(C)C(=O)COc1ccc(Oc2cnc3cc(Cl)ccc3n2)cc1 ... ≥ 100 µM
CC(C)NC(=O)Nc1ccc(Oc2nc3ccc(F)cc3s2)cc1 ... ≥ 100 µM
CC(C)NC(=O)Nc1ccc(Oc2nc3ccc(C(F)(F)F)cc3s2)cc1 ... ≥ 100 µM

Now for a further compound.
Please give the measured concentrations at which not toxic, human fibroblast cytotoxicity for this compound: CC(C)NC(=O)Nc1ccc(Oc2nc3ccc(CO)cc3s2)cc1
≥ 100 µM

---

experiment: in vivo
measurement-setup: rat, initial phase
property: half-life

Please give the measured half-life for this molecule: CCOC(=O)[C@@H](C)Oc1ccc(Oc2nc3ccc(Cl)cc3o2)cc1
9 to 11 h

---

Give IC50 for every item shown.
study-target: Mtb AccD6 (Mycobacterium tuberculosis, UniProt P9WQH5)
experiment: biochemical
Assay type: biochemical
measurement-setup: 300 μM malonyl-CoA, inhibitor 10 μM to 2000 μM; read-out: IC50
Answers are plain numbers, in nM.

Sample answers from the record:
COc1ccc2nc(Oc3ccc(C(C)C(=O)O)cc3)sc2c1 (stereo not drawn) [NZ-334] ... 10000
Clc1ccc2nc(Oc3ccc(OCc4ncc[nH]4)cc3)cnc2c1 [NZ-273] ... 7900
COC(=O)Cc1ccc(Oc2nc3ccc(F)cc3s2)cc1 [NZ-294] ... 12500

Batch request: IC50 per item, same order as input.
1. CC(C)NC(=O)Cc1ccc(Oc2nc3cc(F)c(F)cc3s2)cc1 [NZ-403]
2. CNC(=O)Nc1ccc(Oc2nc3ccc(Cl)cc3s2)cc1 [NZ-353]

1: 160; 2: 4000

Batch request: IC50 per item, same order as input.
1. CN1CCN(C(=O)Cc2ccc(Oc3nc4cc(F)c(F)cc4s3)cc2)CC1 [NZ-409]
2. CONC(=O)Cc1ccc(Oc2nc3ccc(F)cc3s2)cc1 [NZ-300]
3. CC(C)(C)OC(=O)Nc1ccc(Oc2cnc3cc(Cl)ccc3n2)cc1 [NZ-321]
4. CONC(=O)Nc1ccc(Oc2cnc3cc(Cl)ccc3n2)cc1 [NZ-344]

1: 660; 2: 820; 3: 20000; 4: 4100

Batch request: IC50 per item, same order as input.
1. O=C(O)Cn1ccc(Oc2nc3ccc(Cl)cc3s2)cc1=O [NZ-397]
2. CC(C)(Oc1ccc(Oc2nc3ccc(Cl)cc3s2)cc1)C(=O)O [NZ-318]
3. O=C(COc1ccc(Oc2cnc3cc(Cl)ccc3n2)cc1)NOCC1CC1 [NZ-323]
4. CNC(=O)C(C)c1ccc(Oc2nc3ccc(F)cc3s2)cc1 (stereo not drawn) [NZ-386]
5. CC(C)(Oc1ccc(Oc2cnc3cc(Cl)ccc3n2)cc1)C(=O)O [NZ-315]

450
1500
3600
620
1700

Batch request: IC50 per item, same order as input.
1. CC(C(=O)O)c1ccc(Oc2cnc3cc(Cl)ccc3n2)cc1 (stereo not drawn) [NZ-309]
2. CON(C)C(=O)COc1ccc(Oc2cnc3cc(Cl)ccc3n2)cc1 [NZ-290]
3. CNC(=O)Cc1ccc(Oc2nc3cc(F)c(F)cc3s2)cc1 [NZ-400]

1: 172; 2: 2500; 3: 210

Batch request: IC50 per item, same order as input.
1. COC(=O)C(OC)c1ccc(Oc2nc3ccc(Cl)cc3s2)cc1 (stereo not drawn) [NZ-355]
2. O=C(O)Cc1ccc(Oc2nc3ccc(Cl)cc3s2)cc1 [NZ-287]
3. C[C@@H](Oc1ccc(Oc2nc3ccc([N+](=O)[O-])cc3s2)cc1)C(=O)O [NZ-261]
4. Cn1nnnc1COc1ccc(Oc2cnc3cc(Cl)ccc3n2)cc1 [NZ-270]

[20000, 520, 1800, 9700]

---

study-target: Mtb AccD6 (Mycobacterium tuberculosis, UniProt P9WQH5)
experiment: biochemical
Format: biochemical
measurement-setup: 300 μM malonyl-CoA, inhibitor 10 μM to 2000 μM; read-out: IC50
# note: boundary value 1000 nM maps to N; IC50 below it maps to Y

The examples below pair each entry with its known result.
C[C@@H](Oc1ccc(Oc2nc3ccc(Cl)cc3s2)cc1)C(=O)O ... N
CONC(=O)Cc1ccc(Oc2cnc3cc(Cl)ccc3n2)cc1 ... Y
Clc1ccc2nc(Oc3ccc(OCc4ncco4)cc3)cnc2c1 ... N
O=C(O)Cc1ccc(Oc2nc3ccc(F)cc3s2)cc1 ... Y
C[C@@H](Oc1ccc(Oc2nc3ccc(F)cc3s2)cc1)C(=O)O ... N
O=C(COc1ccc(Oc2cnc3cc(Cl)ccc3n2)cc1)N1CCCCC1 ... Y
COC(=O)C(C)c1ccc(Oc2nc3ccc(F)cc3s2)cc1 (stereo not shown) ... N
CNC(=O)Cc1ccc(Oc2nc3ccc(F)cc3s2)cc1F ... Y

Dear reviewer, please state whether CN(C)C(=O)Nc1ccc(Oc2nc3ccc(Cl)cc3s2)cc1 has IC50 strictly beneath 1000 nM.
N

Dear reviewer, please state whether CC(C)NC(=O)C(C)c1ccc(Oc2nc3ccc(Cl)cc3s2)cc1 (stereo not shown) has IC50 strictly beneath 1000 nM.
Y

Dear reviewer, please state whether CONC(=O)C(C)(C)Oc1ccc(Oc2nc3ccc(Cl)cc3s2)cc1 has IC50 strictly beneath 1000 nM.
N

Dear reviewer, please state whether CNC(=O)Cc1ccc(Oc2nc3ccc(F)cc3s2)cc1O has IC50 strictly beneath 1000 nM.
Y

Dear reviewer, please state whether C[C@@H](Oc1ccc(Oc2nc3ccc(Br)cc3s2)cc1)C(=O)O has IC50 strictly beneath 1000 nM.
N

---

// values below are concentrations at which not toxic, s. cerevisiae cytotoxicity; system is S. cerevisiae

CNC(=O)Cc1ccc(O)cc1Oc1nc2ccc(Cl)cc2s1 ... ≥ 100 µM
CNC(=O)C(C)c1ccc(Oc2nc3cc(Cl)c(Cl)cc3s2)cc1 (centres unmarked) ... ≥ 100 µM
CC(C)NC(=O)Nc1ccc(Oc2nc3ccc(F)cc3s2)cc1 ... ≥ 100 µM
COC(=O)C(OC)c1ccc(Oc2nc3ccc(Cl)cc3s2)cc1 (centres unmarked) ... ≥ 100 µM
O=C(COc1ccc(Oc2cnc3cc(Cl)ccc3n2)cc1)NOCC1CC1 ... ≥ 100 µM

Batch request: concentrations at which not toxic, s. cerevisiae cytotoxicity per item, same order as input.
1. CNC(=O)NCc1ccc(Oc2nc3ccc(Cl)cc3s2)cc1
2. COC(=O)C(C)(C)Oc1ccc(Oc2nc3ccc(Cl)cc3s2)cc1
3. CC(C(=O)N(C)C)c1ccc(Oc2nc3ccc(Cl)cc3s2)cc1 (centres unmarked)
4. COC(=O)Cc1ccc(Oc2nc3cc(F)c(F)cc3s2)cc1
5. CC(C)NC(=O)COc1ccc(Oc2cnc3cc(Cl)ccc3n2)cc1
6. CNC(=O)Cc1ccc(Oc2nc3ccc(F)cc3s2)cc1
7. CNC(=O)Cc1ccc(Oc2nc3ccc(Cl)cc3s2)cc1OC
8. CONC(=O)C(C)c1ccc(Oc2nc3ccc(F)cc3s2)cc1 (racemic)

≥ 100 µM
≥ 100 µM
25 to 50 µM
≥ 100 µM
≥ 100 µM
≥ 100 µM
≥ 100 µM
≥ 100 µM

Batch request: concentrations at which not toxic, s. cerevisiae cytotoxicity per item, same order as input.
1. CONC(=O)[C@@H](C)Oc1ccc(Oc2cnc3cc(Cl)ccc3n2)cc1
2. CC(C(=O)N1CCOCC1)c1ccc(Oc2nc3ccc(Cl)cc3s2)cc1 (centres unmarked)
3. COC(=O)C(C)(C)Oc1ccc(Oc2cnc3cc(Cl)ccc3n2)cc1
4. CC(C(=O)N1CCN(C)CC1)c1ccc(Oc2nc3ccc(Cl)cc3s2)cc1 (centres unmarked)
5. CC(C(=O)N1CCNCC1)c1ccc(Oc2nc3ccc(Cl)cc3s2)cc1 (centres unmarked)

1: ≥ 100 µM; 2: 50 to 100 µM; 3: ≥ 100 µM; 4: 25 to 50 µM; 5: ≥ 100 µM

Batch request: concentrations at which not toxic, s. cerevisiae cytotoxicity per item, same order as input.
1. O=C(O)COc1ccc(Oc2nc3ccc(F)cc3s2)cc1
2. Cc1ccc2nc(Oc3ccc(NC(=O)NC(C)C)cc3)sc2c1

1. ≥ 100 µM
2. ≥ 100 µM
